Each entry below lists one item and its recorded EC50 value.
Tested on: CEM cells HIV-1 protection, formazan growth assay
Assay: NCI AIDS Antiviral Assay

Before answering, review these 5 worked examples.
Cc1ccccc1OCC(COC(=O)Nc1ccccc1)OC(=O)Nc1ccccc1 (stereo not drawn); > 32.4 µM
CCC/C(=N\NC(=S)N1CCN(c2ccccn2)CC1)c1ccccn1; > 19.5 µM
CCC[CH2][Sn]([CH2]CCC)([S]CCS(=O)(=O)O)[S]CCS(=O)(=O)O; > 200 µM
O=C1CCSc2c(cnc3ccccc23)N1; > 200 µM
S=C(N/N=C(/c1ccccc1)c1ccccn1)Nc1cccc(Cl)c1; > 0.2 µM

Provide EC50, tested on CEM cells HIV-1 protection, formazan growth assay, for C[n+]1ccc(-c2c3nc(c(-c4cc[n+](C)cc4)c4ccc([n-]4)c(-c4cc[n+](C)cc4)c4nc(c(-c5cc[n+](C)cc5)c5ccc2[n-]5)C=C4)C=C3)cc1.[I-].[Zn+2] . > 72.4 µM

Provide EC50, tested on CEM cells HIV-1 protection, formazan growth assay, for CN1CC[C@@H](O)C(CNC23CC4CC(CC(C4)C2)C3)C1 (stereo partly drawn) . > 200 µM

Provide EC50, tested on CEM cells HIV-1 protection, formazan growth assay, for Oc1ccccc1/C=N/N=C/c1ccccc1O . > 200 µM

====

Tested on: CEM cells HIV-1 protection, formazan growth assay
Assay: NCI AIDS Antiviral Assay
Settings: measured here: growth of uninfected CEM cells
pIC50: −log10 of the molar value.
attribute-measured: pIC50

COc1cc2ccc3c(c2cc1OC)CCc1cn[nH]c1-3; < 5.01
CC1=C(/C=C/C(C)=C/C=C/C(C)=C/C=C/C=C(C)/C=C/C=C(C)/C=C/C=C(C)/C=C/C=C(\C)C(=O)O)C(C)(C)CCC1; < 5.32
Cc1ccccc1Nc1nc2ccccc2nc1NS(=O)(=O)c1ccccc1; < 3.70
COC(=O)/C(C#N)=C/NC(=S)Nc1ccccc1; < 3.70
CCc1nnc(CC)n1-n1c(Cc2ccccc2)n[nH]c1=O; < 3.70

Provide pIC50, tested on CEM cells HIV-1 protection, formazan growth assay, for CCc1n[nH]c(=O)n1N1C(=O)C2CCCCC2C1=O (stereo unspecified) . < 3.70

====

Test system: CEM cells HIV-1 protection, formazan growth assay
Test: NCI AIDS Antiviral Assay;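 active = compounds giving half or more protection of infected cells from virus-caused growth loss, again on retest; inactive = the rest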
# valid calls are True (active), False (inactive); nothing else

Worked set:
O=C(NCCO)c1c(CO)n([O-])c2ccccc2[n+]1=O; False
C=CCNC1=C2C[C@@H](C)C[C@@H](OC)C(OC(=O)CCCN(C)C)[C@H](C)/C=C(\C)[C@@H](OC(N)=O)[C@H](OC)/C=C\C=C(/C)C(=O)NC(=CC1=O)C2=O (stereo not given in full); False
N/C(=N/n1c(=S)[nH]c2ccccc2c1=O)Nn1c(=S)[nH]c2ccccc2c1=O; False
COc1ccc(S(=O)(=O)N(C)C)cc1C(=O)c1cc(S(=O)(=O)N(C)C)ccc1OC; False
O=C(O)C12C3CCC(CC3)C1(C(=O)O)C1CCC2C1 (stereo not given); False

Kindly provide the recorded test outcome for the following molecule: O=[N+]([O-])c1ccc(N=NN2CCCC2)cc1 False

Kindly provide the recorded test outcome for the following molecule: Cc1ccnc2c1C(=O)C1=C(OC(C)(C)CC1O)C2=O (stereo not given) False

Kindly provide the recorded test outcome for the following molecule: O=C(O)C1CC(O)CN1S(=O)(=O)Cc1ccccc1 (stereo not given) False

Kindly provide the recorded test outcome for the following molecule: Cc1cc(NS(=O)(=O)c2ccc(NC(=O)c3cccc4c(Nc5ccc(S(N)(=O)=O)cc5)c5ccccc5nc34)cc2)no1 False

Kindly provide the recorded test outcome for the following molecule: O=C(/C=C/c1ccccc1)c1ccc(NCc2nc3ccccc3[nH]2)cc1 False

Kindly provide the recorded test outcome for the following molecule: N=c1c2c(C(N)=O)cn(C3OC(CO)C(O)C3O)c2ncn1O (stereo not given) False

Kindly provide the recorded test outcome for the following molecule: O=c1cc(-c2ccccc2)oc2cc(OCCSCCCCCCCCCCSCCOc3ccc4c(=O)cc(-c5ccccc5)oc4c3)ccc12 False

Kindly provide the recorded test outcome for the following molecule: O=C(c1ccccc1)n1[nH]c(=O)n(-c2ccc(Cl)cc2)c1=O False

Kindly provide the recorded test outcome for the following molecule: CC(=O)OC1(C#N)CC2OC1C1NC21 (stereo not given) False

Kindly provide the recorded test outcome for the following molecule: CCCCOC(=O)/C(O)=C(\C=NC(=S)c1cccnc1)C(=O)C=C(C)C False

Kindly provide the recorded test outcome for the following molecule: COC1(C)C(=O)N(C)C1c1ccccc1 (stereo not given) False

Kindly provide the recorded test outcome for the following molecule: C1=Nc2ccc(cc2)N=Cc2ccccc2OCc2cccc(n2)COc2ccccc21 False

Kindly provide the recorded test outcome for the following molecule: CC(=O)C1(N=Nc2ccc(S(=O)(=O)Nc3nnc(C)s3)cc2)CCOC1=O (stereo not given) False

Kindly provide the recorded test outcome for the following molecule: O=C(CNc1ccc(Cl)cc1)Nn1c(-c2ccccc2)nc2ccccc2c1=O False

Kindly provide the recorded test outcome for the following molecule: O=S(Cc1cc2c(cc1Br)OCO2)c1ccccc1 (stereo not given) False

Kindly provide the recorded test outcome for the following molecule: O=C1C=C2C3c4c(cc(O)cc4C4c5c(O)cc6c(c5[C@@H]5C(c7ccc(O)cc7)C1C(=O)[C@@]25[C@@H]4c1ccc(O)cc1)[C@@H](c1cc(O)cc(O)c1)[C@H](c1ccc(O)cc1)O6)O[C@H]3c1ccc(O)cc1 (stereo not given in full) False

Kindly provide the recorded test outcome for the following molecule: FC(F)(F)C(C1=NC(C(F)(F)F)(C(F)(F)F)N=C(N2CCOCC2)O1)C(F)(F)F False

Kindly provide the recorded test outcome for the following molecule: CO[C@H]1C[C@H](n2cc(C)c(=O)[nH]c2=O)O[C@@H]1CO False

Kindly provide the recorded test outcome for the following molecule: Nn1c(-c2ccccc2)n[nH]c1=O False

Kindly provide the recorded test outcome for the following molecule: Cc1ccc(N=Nc2cc(C)c(N)c(N=Nc3ccc(N=Nc4cc(C(=O)O)c(O)c(S(=O)(=O)O)c4)c(C)c3)c2N)cc1 True

Kindly provide the recorded test outcome for the following molecule: Nc1nc(N)c(-c2cccc(C(F)(F)F)c2)c(Cc2cccc(C(F)(F)F)c2)n1 False
